System: MDA-MB-231 cells
measurement notes: Drug response, cells cultured in hydrogels
Type: cell-based
experimental setup: Homo sapiens, MDA-MB-231, 48 h, balanced dormancy hydrogel, 48 hr
quantity measured: IC50 (µM)
Unit µM implied. Number only.

Reported IC50 ( COc1cccc2c1C(=O)c1c(O)c3c(c(O)c1C2=O)C[C@@](O)(C(=O)CO)C[C@@H]3O[C@H]1C[C@H](N)[C@H](O)[C@H](C)O1 ) = 58.3

###

Test system: MDA-MB-231 cells
measurement notes: Drug response, cells cultured in hydrogels
Format: cell-based
experimental setup: Homo sapiens, MDA-MB-231, 48 h, growth state hydrogel, 48 hr
quantity measured: pIC50
// returns pIC50 (minus log10 of molar concentration), number only

The compound identified as COc1cccc2c1C(=O)c1c(O)c3c(c(O)c1C2=O)C[C@@](O)(C(=O)CO)C[C@@H]3O[C@H]1C[C@H](N)[C@H](O)[C@H](C)O1 [DOX, doxorubicin] registered its pIC50 at 4.36

###

System: MDA-MB-231 cells
measurement notes: Drug response, 2D controls on tissue culture plastic
Format: cell-based
experimental setup: Homo sapiens, MDA-MB-231; 2D culture, 48 hr
Let's look at some compounds and their measured IC50.
Entry rule: numbers only, all in µM.

Lab note: CC(=O)O[C@H]1C(=O)[C@@]2(C)[C@H]([C@H](OC(=O)c3ccccc3)[C@]3(O)C[C@H](OC(=O)[C@H](O)[C@@H](NC(=O)c4ccccc4)c4ccccc4)C(C)=C1C3(C)C)[C@]1(OC(C)=O)CO[C@@H]1C[C@@H]2O [PAC, paclitaxel] gave IC50 of 0.651

More entries:
Entry COc1cccc2c1C(=O)c1c(O)c3c(c(O)c1C2=O)C[C@@](O)(C(=O)CO)C[C@@H]3O[C@H]1C[C@H](N)[C@H](O)[C@H](C)O1 [DOX, doxorubicin] ; IC50 = 0.007

###

Tested on: MDA-MB-231 cells
measurement notes: Drug response, cells cultured in hydrogels
Type: cell-based
experimental setup: Homo sapiens, MDA-MB-231, 48 h, cellular dormancy hydrogel, 48 hr
quantity measured: pEC50
Note on units: pEC50 is unitless, being -log10 of a concentration expressed in mol/L.

Entry under test: COc1cccc2c1C(=O)c1c(O)c3c(c(O)c1C2=O)C[C@@](O)(C(=O)CO)C[C@@H]3O[C@H]1C[C@H](N)[C@H](O)[C@H](C)O1 . Its pEC50 was 4.08

###

System: MDA-MB-231 cells
measurement notes: Drug response, cells cultured in hydrogels
Type: cell-based
experimental setup: Homo sapiens, MDA-MB-231, 48 h, growth state hydrogel, 48 hr
quantity measured: pEC50
pEC50 is defined as minus the log10 of a concentration measured in mol/L.

response.value for COc1cccc2c1C(=O)c1c(O)c3c(c(O)c1C2=O)C[C@@](O)(C(=O)CO)C[C@@H]3O[C@H]1C[C@H](N)[C@H](O)[C@H](C)O1 [DOX, doxorubicin] (field: pEC50) = 4.36
